# system: T1, human GIP receptor (human, UniProt P48546 22-466)
# T1 sequence (looked up): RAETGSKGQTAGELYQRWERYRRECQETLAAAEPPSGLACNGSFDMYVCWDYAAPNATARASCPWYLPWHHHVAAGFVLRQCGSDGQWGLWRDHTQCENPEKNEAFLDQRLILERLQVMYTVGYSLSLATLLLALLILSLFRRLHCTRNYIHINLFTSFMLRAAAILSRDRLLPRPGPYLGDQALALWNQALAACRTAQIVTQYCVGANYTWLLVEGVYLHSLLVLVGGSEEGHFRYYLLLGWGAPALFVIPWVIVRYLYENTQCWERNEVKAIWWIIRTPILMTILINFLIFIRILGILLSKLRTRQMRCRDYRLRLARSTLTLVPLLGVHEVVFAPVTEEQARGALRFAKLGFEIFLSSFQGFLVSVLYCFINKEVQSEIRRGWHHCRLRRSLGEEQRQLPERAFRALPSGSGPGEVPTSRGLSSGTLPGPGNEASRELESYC
# test_protocol: cell-based or functional assay
*1 amine or outer side, *2 acyl side, *3 side chain or, on linkers, in order; H or OH if unused. Where no end group is shown, it is not given here. Side-chain parts run from the residue outwards. [ ]: non-standard residue; d: D form. The star is where a group is joined. Decanoyl(10-(4-HOOC-PhO)) = O=C(O)c1ccc(OCCCCCCCCCC(=O)*)cc1; αMePhe(2-F) = C[C@](N)(Cc1ccccc1F)C(=O)O; γGlu = O=C(O)[C@H](CCC(=O)[*:2])N[*:1]; αMeY = C[C@](N)(Cc1ccc(O)cc1)C(=O)O; αMeL = CC(C)C[C@](C)(N)C(=O)O; Orn = NCCC[C@H](N)C(=O)O; AEEA = NCCOCCOCC(=O)O; Aib = CC(C)(N)C(=O)O
Note to self: class = bucket of cAMP EC50 (1.0% HSA), per low = under 0.3 nM, medium = from 0.3 nM up to 0.6 nM, high = 0.6 nM and over

These solved cases illustrate the format of a correct answer.
YXEGTXTSDXXIXLDXKAQXKFIXXLIEGGPSSGAPPPS (Y-Aib-EGT-αMeF(2F)-TSD-4Pal-Aib-I-αMeL-LD-Orn-K((2-[2-(2-Amino-ethoxy)-ethoxy]-acetyl)3-(γ-Glu)-CO-(CH2)10-CH3)AQ-Aib-K((2-[2-(2-Amino-ethoxy)-ethoxy]-acetyl)3-(γ-Glu)-CO-(CH2)10-CH3)FI-(D-Glu)-αMeY-LIEGGPSSGAPPPS-NH2) [Example 422]    low
YXEGTXTSDYXIXLDXIAQXEFIKXLIKGGPSSGAPPPS (Y-Aib-EGT-αMeF(2F)-TSDY-Aib-I-αMeL-LD-Orn-IAQ-Aib-EFIK((2-[2-(2-Amino-ethoxy)-ethoxy]-acetyl)-(γ-Glu)-(10-(4-carboxyphenoxy)decanoyl))-αMeY-LIK((2-[2-(2-Amino-ethoxy)-ethoxy]-acetyl)-(γ-Glu)-(10-(4-carboxyphenoxy)decanoyl))GGPSSGAPPPS-NH2) [Example 375]    high
YXEGTXTSDXXIXLDXKAQXXFIXXLIEGGPSSGAPPPSK (Y-Aib-EGT-αMeF(2F)-TSD-4Pal-Aib-I-αMeL-LD-Orn-K((2-[2-(2-Amino-ethoxy)-ethoxy]-acetyl)2-(γ-Glu)-CO-(CH2)10-CH3)AQ-Aib-4Pal-FI-(D-Glu)-αMeY-LIEGGPSSGAPPPSK((2-[2-(2-Amino-ethoxy)-ethoxyl-acetyl)2-(γ-Glu)-CO-(CH2)10-CH3)-NH2) [Example 420]    medium
YXEGTXTSDKXIXLDXKAQXXFIXXLIEGGPSSGAPPPS (Y-Aib-EGT-αMeF(2F)-TSDK((2-[2-(2-Amino-ethoxy)-ethoxy]-acetyl)3-(γ-Glu)-CO-(CH2)10-CH3)-Aib-I-αMeL-LD-Orn-K((2-[2-(2-Amino-ethoxy)-ethoxy]-acetyl)3-(γ-Glu)-CO-(CH2)10-CH3)AQ-Aib-Orn-FI-(D-Glu)-αMeY-LIEGGPSSGAPPPS-NH2) [Example 432]    low

Prompt: Note: place this binder into its band. Item: YXEGTXTSDVXIXLDXKAQXKFIXXLIEGGPSSGAPPPS (Y-Aib-EGT-αMeF(2F)-TSDV-Aib-I-αMeL-LD-Orn-K((2-[2-(2-Amino-ethoxy)-ethoxy]-acetyl)2-CO-(CH2)12-CO2H)AQ-Aib-K((2-[2-(2-Amino-ethoxy)-ethoxy]-acetyl)2-CO-(CH2)12-CO2H)FI-(D-Glu)-αMeY-LIEGGPSSGAPPPS-NH2) [Example 386]
Completion: high

Prompt: And the next one, YXEGTXTSDXXIXLDXQAQXXFIKXLIKGGPSSGAPPPS (Y-Aib-EGT-αMeF(2F)-TSD-4Pal-Aib-I-αMeL-LD-Orn-QAQ-Aib-Orn-FIK((2-[2-(2-Amino-ethoxy)-ethoxy]-acetyl)-(γ-Glu)-(2-[2-(2-Amino-ethoxy)-ethoxy]-acetyl)-(γ-Glu)-(10-(4-carboxyphenoxy)decanoyl))-αMeY-LIK((2-[2-(2-Amino-ethoxy)-ethoxy]-acetyl)-(γ-Glu)-(2-[2-(2-Amino-ethoxy)-ethoxy]-acetyl)-(γ-Glu)-(10-(4-carboxyphenoxy)decanoyl))GGPSSGAPPPS-NH2) [Example 485] ?
Completion: medium

Prompt: And the next one, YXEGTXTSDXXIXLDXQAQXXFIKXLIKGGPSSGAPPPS (Y-Aib-EGT-αMeF(2F)-TSD-4Pal-Aib-I-αMeL-LD-Orn-QAQ-Aib-Orn-FIK((2-[2-(2-Amino-ethoxy)-ethoxy]-acetyl)-(γ-Glu)3-(10-(4-carboxyphenoxy)decanoyl))-αMeY-LIK((2-[2-(2-Amino-ethoxy)-ethoxy]-acetyl)-(γ-Glu)3--(10-(4-carboxyphenoxy)decanoyl))GGPSSGAPPPS-NH2) [Example 487] ?
Completion: medium

Prompt: And the next one, Y[Aib]EGT[αMePhe(2-F)]TSDV[Aib]I[αMeL]LD[Orn]K([AEEA-γGlu-Decanoyl(10-(4-HOOC-PhO))])AQ[Aib]EFI[dE][αMeY]LIK([AEEA-γGlu-Decanoyl(10-(4-HOOC-PhO))])GGPSSGAPPPS-NH2 [Example 379] ?
Completion: high

Prompt: And the next one, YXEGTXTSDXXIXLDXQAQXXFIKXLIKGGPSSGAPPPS (Y-Aib-EGT-αMeF(2F)-TSD-4Pal-Aib-I-αMeL-LD-Orn-QAQ-Aib-Orn-FIK((2-[2-(2-Amino-ethoxy)-ethoxy]-acetyl)-(γ-Glu)-CO-(CH2)12-CO2H)-αMeY-LIK((2-[2-(2-Amino-ethoxy)-ethoxy]-acetyl)-(γ-Glu)-CO-(CH2)12-CO2H)GGPSSGAPPPS-NH2) [Example 459] ?
Completion: medium
